Entries below carry reported IC50 on DGKα (Homo sapiens (Human), UniProt P23743).
Sequence (P23743 whole entry): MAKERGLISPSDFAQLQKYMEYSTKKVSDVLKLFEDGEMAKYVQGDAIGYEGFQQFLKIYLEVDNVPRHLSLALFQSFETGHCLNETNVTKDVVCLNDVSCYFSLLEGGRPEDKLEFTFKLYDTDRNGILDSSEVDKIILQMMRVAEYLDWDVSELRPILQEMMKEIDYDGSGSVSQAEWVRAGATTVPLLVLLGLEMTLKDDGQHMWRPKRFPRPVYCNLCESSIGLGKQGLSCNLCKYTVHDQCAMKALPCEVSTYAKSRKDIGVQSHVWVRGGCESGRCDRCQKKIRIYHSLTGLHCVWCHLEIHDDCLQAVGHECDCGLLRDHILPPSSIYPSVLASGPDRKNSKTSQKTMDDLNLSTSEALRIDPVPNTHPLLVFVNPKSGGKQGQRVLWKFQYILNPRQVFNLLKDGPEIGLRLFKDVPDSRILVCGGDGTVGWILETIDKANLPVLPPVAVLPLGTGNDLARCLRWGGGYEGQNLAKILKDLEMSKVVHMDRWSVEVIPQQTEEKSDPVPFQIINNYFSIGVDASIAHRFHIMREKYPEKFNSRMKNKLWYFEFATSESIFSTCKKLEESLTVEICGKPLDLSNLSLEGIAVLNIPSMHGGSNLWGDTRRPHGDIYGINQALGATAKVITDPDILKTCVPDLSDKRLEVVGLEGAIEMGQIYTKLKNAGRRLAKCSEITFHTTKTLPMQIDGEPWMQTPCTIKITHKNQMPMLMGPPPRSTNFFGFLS

In [3]: df
Out[3]:
                                   molecule    result
0  CC(c1ccc(F)cc1C(C)(F)F)N1C[C@H](C)N(c2cc(=O)n(C)c3cn(CC#N)nc23)C[C@H]1C (stereo partly shown)   > 10 µM
1  COc1c(C(C)N2C[C@H](C)N(c3cc(=O)n(C)c4cn(CC#N)nc34)C[C@H]2C)ccc(F)c1F (stereo partly shown)   > 10 µM
2  Cc1nc2ccc(C(C)N3C[C@H](C)N(c4cc(=O)n(C)c5cn(CC#N)nc45)C[C@H]3C)cn2n1 (mixture of isomers)  > 150 µM

Exercise: So what does the record say about IC50 for CC[C@@H]1CN(c2cc(=O)n(C)c3cn(CC#N)nc23)[C@@H](C)CN1C(C)c1ccc(F)cc1OC (stereo partly shown) ?
Solution: > 10 µM

* * *

Entries below carry reported IC50 on DGKα (Homo sapiens (Human), UniProt P23743).

Consider the reported IC50 for these compounds:
Compound	IC50
CCc1c(C(C)N2C[C@H](CC)N(c3cc(=O)n(C)c4cn(CC#N)nc34)C[C@H]2CC)cnn1C (single isomer, unassigned) [Compound A213a]	> 10 µM
C=CCn1cc2c(n1)c(N1C[C@@H](C)N([C@@H](C)c3ccc4ncc(C)nc4c3)C[C@@H]1C)cc(=O)n2C [Compound A301]	> 150 µM

Consider the additional compound presented here.
Exercise: So what does the record say about IC50 for CC[C@H]1CN(C(C)c2nc3cc(C(F)(F)F)ccc3n2CC)[C@H](CC)CN1c1cc(=O)n(C)c2cn(CC#N)nc12 (single isomer, unassigned) [Compound A203a] ?
Solution: > 10 µM

* * *

Would you kindly list IC50 for each of these compounds?
Tested Target: DGKζ (Homo sapiens (Human))
Sequence (Q13574 other isoform, or with tags, fused parts or gaps): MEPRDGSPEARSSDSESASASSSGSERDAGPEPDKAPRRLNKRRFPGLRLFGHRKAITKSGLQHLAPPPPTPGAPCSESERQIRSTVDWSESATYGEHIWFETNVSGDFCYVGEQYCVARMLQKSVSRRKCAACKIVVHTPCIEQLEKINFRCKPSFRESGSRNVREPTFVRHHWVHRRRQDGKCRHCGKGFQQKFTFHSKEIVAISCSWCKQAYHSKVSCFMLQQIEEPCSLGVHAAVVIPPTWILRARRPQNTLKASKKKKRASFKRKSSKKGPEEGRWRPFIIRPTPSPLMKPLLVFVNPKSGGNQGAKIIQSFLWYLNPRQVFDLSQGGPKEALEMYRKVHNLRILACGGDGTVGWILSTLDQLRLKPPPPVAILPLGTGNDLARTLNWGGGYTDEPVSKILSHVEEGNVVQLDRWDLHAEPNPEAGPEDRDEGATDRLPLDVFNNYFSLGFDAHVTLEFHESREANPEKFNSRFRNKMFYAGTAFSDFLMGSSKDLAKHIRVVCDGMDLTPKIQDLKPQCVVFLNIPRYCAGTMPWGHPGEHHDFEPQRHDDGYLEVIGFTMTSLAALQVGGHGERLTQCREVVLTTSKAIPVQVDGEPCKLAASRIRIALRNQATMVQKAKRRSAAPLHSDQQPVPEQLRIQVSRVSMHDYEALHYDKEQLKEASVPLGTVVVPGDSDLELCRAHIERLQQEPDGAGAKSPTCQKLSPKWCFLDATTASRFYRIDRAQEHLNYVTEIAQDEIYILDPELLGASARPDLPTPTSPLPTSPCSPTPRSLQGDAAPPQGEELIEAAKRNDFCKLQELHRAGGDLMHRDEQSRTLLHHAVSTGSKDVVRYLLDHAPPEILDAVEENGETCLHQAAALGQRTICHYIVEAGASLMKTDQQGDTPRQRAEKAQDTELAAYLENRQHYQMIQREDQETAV
Protocol: Biochemical DGK IC50 assay, DGKζ ADP-Glo assay
Cond: 0.5 nM enzyme, 140 μM ATP, 80 μM DAG; read-out: DGKζ ADP-Glo assay IC50

In [3]: df
Out[3]:
                                   compound  measure_name    result
0  C[C@H]1CN([C@@H](C)c2ccc3c(c2)OC(C)(C)CO3)[C@@H](C)CN1c1cc(=O)n(C)c2cn(CC#N)nc12 [Compound A46a]          IC50   > 10 µM
1  COCc1cc(F)ccc1C(C)N1C[C@H](C)N(c2cc(=O)n(C)c3cn(CC#N)nc23)C[C@H]1C (single isomer, unassigned) [Compound A29b]          IC50  0.057 µM

Exercise: So what does the record say about IC50 for CC[C@H]1CN(C(C)c2ccc(C(F)(F)F)cc2F)[C@H](CC)CN1c1cc(=O)n(C)c2c[nH]nc12 (single isomer, unassigned) [Compound A231a] ?
Solution: > 10 µM

* * *

Tested Target: DGKα (Homo sapiens (Human), UniProt P23743)
pIC50: −log10 of the molar value.
If the reported pIC50 equals or exceeds 6, assign yes. If not, assign no.

Compound	Cat
CC[C@H]1CN(C(C)c2ccc3nccnc3c2)[C@H](CC)CN1c1cc(=O)n(CC2CC2)c2cn(CC#N)nc12 (stereo partly drawn)	no
[2H]C([2H])([2H])c1cnc2ccc(C(C)N3C[C@H](C)N(c4cc(=O)n(C)c5cn(CC#N)nc45)C[C@H]3C)cc2n1 (single isomer, unassigned) [Compound A313a]	no
CC[C@H]1CN(C(C)c2ccc(Cl)cn2)[C@H](CC)CN1c1cc(=O)n(C)c2cn(CC#N)nc12 (single isomer, unassigned) [Compound A360a]	yes

Exercise: I'd appreciate it if you could say whether Cc1cnc2ccc([C@@H](C)N3C[C@H](C)N(c4cc(=O)n(C)c5cn(CC#N)nc45)C[C@H]3C)cc2n1 [Compound A269c] has pIC50 at least equal to 6.
Solution: no

Exercise: I'd appreciate it if you could say whether `CC[C@@H]1CN(c2cc(=O)n(C)c3cn(CC#N)nc23)[C@@H](CC)CN1C(=O)c1cccc(C(F)(F)F)c1` has pIC50 at least equal to 6.
Solution: no

All values here come from patent US20240270751A1.
